Assay: Pharmacokinetic test in rats: plasma and brain concentration after gavage 3 mg/kg
Format: in vivo
Conditions: rat, brain/plasma, oral, SD rats, sampling time 8 h, read-out: B/P ratio
MEASURED PROPERTY: Kp at 8 h
Write the number on its own, no unit after it.

Recorded Kp at 8 h of Cc1nsc(-c2nc(-c3cc(F)ncc3F)c3n2CCN(C(=O)c2ccc(F)cc2)[C@@H]3C)n1 , please. 3.36

---

Test: Pharmacokinetic test in rats (gavage 3 mg/kg, intravenous 1 mg/kg)
Type: in vivo
Settings: rat, plasma; SD rats, intravenous injection 1 mg/kg; read-out: Half life T1/2 (converted)
Consider the cut-off 2 h. If the recorded half-life is strictly smaller, the label is MET; if not, the label is NOT MET.

These solved cases illustrate the format of a correct answer.
Take the molecule Cc1nsc(-c2nc(N3C[C@H](F)CC3=O)c3n2CCN(C(=O)c2ccc(F)cc2)[C@@H]3C)n1 [Compound 107] and say whether its half-life is less than 2 h. MET

Does the reported half-life of Cc1nsc(-c2nnc3n2CCN(C(=O)c2ccc(F)cc2)[C@@H]3C)n1 [Fezolinetant, reference compound] stay below 2 h? MET

Please let me know if Cc1nsc(-c2nc(N3CCCC3=O)c3n2CCN(C(=O)c2ccc(F)cc2)[C@@H]3C)n1 [Compound 068] shows half-life below 2 h. MET

Below 2 h on half-life? Entry CC(=O)Nc1nc(-c2nc(C)ns2)n2c1[C@@H](C)N(C(=O)c1ccc(F)cc1)CC2 [Compound 034] NOT MET

Could you now look at the following molecule, please?
Quick check: does Cc1nsc(-c2nc(-c3cc(F)ncc3F)c3n2CCN(C(=O)c2ccc(F)cc2)[C@@H]3C)n1 [Compound 077] have half-life under 2 h? NOT MET

---

Test: Pharmacokinetic test in rats (gavage 3 mg/kg, intravenous 1 mg/kg)
Type: in vivo
Settings: rat, plasma, po; SD rats, gavage 3 mg/kg; read-out: Half life T1/2 (converted)
MEASURED PROPERTY: half-life

These recorded examples may help you get a feel for the data.
GET /values?readout=half-life&item= Cc1nsc(-c2nnc3n2CCN(C(=O)c2ccc(F)cc2)[C@@H]3C)n1 [Fezolinetant, reference compound] 3.22 h

Could you tell me which half-life is on file for Cc1nsc(-c2nc(-c3cc(F)ncc3F)c3n2CCN(C(=O)c2ccc(F)cc2)[C@@H]3C)n1 ? 11.7 h

Name the recorded half-life for Cc1nsc(-c2nc(N3CCCC3=O)c3n2CCN(C(=O)c2ccc(F)cc2)[C@@H]3C)n1 . 3.57 h

// half-life lookup, key: Cc1nsc(-c2nc(N3C[C@H](F)CC3=O)c3n2CCN(C(=O)c2ccc(F)cc2)[C@@H]3C)n1 4.69 h

Now for another entry.
I have this molecule here, CC(=O)Nc1nc(-c2nc(C)ns2)n2c1[C@@H](C)N(C(=O)c1ccc(F)cc1)CC2 , and I need its recorded half-life. 3.92 h

---

Experiment: Pharmacokinetic test in rats: plasma and brain concentration after gavage 3 mg/kg
Format: in vivo
Conditions: rat, brain/plasma, oral, SD rats, sampling time 2 h, read-out: B/P ratio
Source text: Test Example 4: Pharmacokinetic Test of Compounds of the Present Invention in Rats To study in vivo pharmacokinetic behaviors of the compounds of the present invention in rats, and evaluate pharmacokinetic characteristics thereof. […] The concentrations of corresponding compounds in plasma and cerebrospinal fluid were detected by LC-MS/MS.
MEASURED PROPERTY: Kp at 2 h
Answer with a number only.

Which Kp at 2 h reading was recorded for the compound Cc1nsc(-c2nnc3n2CCN(C(=O)c2ccc(F)cc2)[C@@H]3C)n1 [Fezolinetant, reference compound] ? 0.46

Next compound, please.
Give its Kp at 2 h value. Item: Cc1nsc(-c2nc(-c3cc(F)ncc3F)c3n2CCN(C(=O)c2ccc(F)cc2)[C@@H]3C)n1 3.66
